The origin of these recorded values is paper PMC6792352.

- protocolDescription: in vitro
- details: rat, gh3-tre-luc cells, AC50 (uM) modified / 1000, Tox21_110001=Tox21_303609; viability, 1 nM T3 present, 24 h
recordedMetric: CC50 at 24 h

// C=C(C)CCl : CC50 at 24 h value = > 9 µM

* * *

- System: GH3-TRE-Luc cell line
- details: read-out: AC50 (uM) modified / 1000; Tox21_110001=Tox21_111018; viability, 1 nM T3 present, 24 h
recordedMetric: CC50

Just so you know, measured CC50 for CC(=O)Oc1ccccc1C(=O)Nc1ncc([N+](=O)[O-])s1 [Nitazoxanide] came out at 27.7 µM
